ASSAY_INFO: Metabolic stability in dog liver microsomes assessed as compound remaining after 10 mins
Assay type: ADME, Canis lupus familiaris, Microsome
MEASUREMENT_CONDITIONS: read-out: Stability
QUANTITY_MEASURED: remaining at 10 min (%)

Some solved cases for reference:
FC(F)(F)c1ccccc1-c1ccc2[nH]c(/C=C/C3CCOCC3)nc2c1 51
Fc1cccc(C(F)(F)F)c1-c1ccc2[nH]c(/C=C/C3CCCCC3)nc2c1 42

P: FC(F)(F)c1ccccc1-c1ccc2[nH]c(/C=C/C3CCCCC3)nc2c1
Q: FC(F)(F)c1cccc(C(F)(F)F)c1-c1ccc2[nH]c(/C=C/C3CCCCC3)nc2c1
R: FC1(F)CCC(/C=C/c2nc3cc(-c4ccccc4C(F)(F)F)ccc3[nH]2)CC1
Please give the order of these compounds when sorted by remaining at 10 min, largest value leading. Hello, could you send the labels back in the order asked? Thank you.
Q, R, P

a: Cc1ccccc1-c1ccc2[nH]c(/C=C/C3CCCCC3)nc2c1
b: CC1(/C=C/c2nc3cc(-c4ccccc4C(F)(F)F)ccc3[nH]2)CCOCC1
c: CS(=O)(=O)N1CCC(/C=C/c2nc3cc(-c4ccccc4C(F)(F)F)ccc3[nH]2)CC1
Please give the order of these compounds when sorted by remaining at 10 min, largest value leading. Hello, could you send the labels back in the order asked? Thank you.
c, b, a

a: FC(F)(F)c1cccnc1-c1ccc2[nH]c(/C=C/C3CCCCC3)nc2c1
b: FC(F)(F)c1ccccc1-c1ccc2[nH]c(/C=C/C3CCNCC3)nc2c1
Which numeric remaining at 10 min is bigger, that of a or that of b ? Reply briefly: the label of your chosen item.
b

###

MEASUREMENT_TARGET: Transient receptor potential M8 protein (Canis lupus familiaris)
Sequence (Q1A7N1 whole entry): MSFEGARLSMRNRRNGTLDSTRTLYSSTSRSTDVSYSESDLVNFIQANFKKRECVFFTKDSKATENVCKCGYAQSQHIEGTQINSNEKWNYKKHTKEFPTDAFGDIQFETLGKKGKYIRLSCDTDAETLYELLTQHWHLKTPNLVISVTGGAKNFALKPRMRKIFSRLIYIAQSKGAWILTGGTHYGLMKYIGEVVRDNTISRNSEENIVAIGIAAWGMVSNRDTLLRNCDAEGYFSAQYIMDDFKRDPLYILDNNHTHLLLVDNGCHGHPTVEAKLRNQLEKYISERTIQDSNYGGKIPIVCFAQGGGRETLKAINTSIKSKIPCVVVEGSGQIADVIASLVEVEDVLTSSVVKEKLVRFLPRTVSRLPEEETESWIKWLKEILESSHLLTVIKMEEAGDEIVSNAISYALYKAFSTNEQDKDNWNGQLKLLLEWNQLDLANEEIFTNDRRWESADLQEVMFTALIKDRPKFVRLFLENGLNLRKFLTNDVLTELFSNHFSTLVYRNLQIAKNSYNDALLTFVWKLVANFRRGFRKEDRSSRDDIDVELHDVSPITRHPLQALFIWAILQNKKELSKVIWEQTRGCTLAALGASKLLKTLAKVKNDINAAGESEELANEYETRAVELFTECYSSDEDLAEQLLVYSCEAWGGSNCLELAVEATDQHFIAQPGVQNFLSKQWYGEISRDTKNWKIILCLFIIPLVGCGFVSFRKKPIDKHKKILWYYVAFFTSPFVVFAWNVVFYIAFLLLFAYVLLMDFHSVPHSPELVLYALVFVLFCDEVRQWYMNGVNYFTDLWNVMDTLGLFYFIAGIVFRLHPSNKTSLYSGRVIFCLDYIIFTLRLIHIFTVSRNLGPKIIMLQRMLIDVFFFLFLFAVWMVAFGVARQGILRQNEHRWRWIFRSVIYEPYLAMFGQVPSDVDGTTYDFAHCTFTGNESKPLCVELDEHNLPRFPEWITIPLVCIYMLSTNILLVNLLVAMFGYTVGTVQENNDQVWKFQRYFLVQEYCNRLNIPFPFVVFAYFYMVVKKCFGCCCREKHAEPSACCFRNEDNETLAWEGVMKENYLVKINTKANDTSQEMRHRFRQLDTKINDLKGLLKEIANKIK
ASSAY_INFO: Antagonist activity at dog TRPM8 expressed in HEK293 cells assessed as inhibition of icilin-induced calcium flux by FLIPR assay
pIC50: −log10 of the molar value.
QUANTITY_MEASURED: pIC50

CC1(/C=C/c2nc3cc(-c4ccccc4C(F)(F)F)ccc3[nH]2)CCC(F)(F)CC1 8.05

a: FC(F)(F)c1ccccc1-c1ccc2[nH]c(/C=C/C3CCCCC3)nc2c1
b: FC1(F)CCC(/C=C/c2nc3cc(-c4ccccc4C(F)(F)F)ccc3[nH]2)CC1
// task: argmin of pIC50 over [ a , b ] Reply briefly: the label of your chosen item.
b

###

MEASUREMENT_TARGET: CYP2C9 (Homo sapiens, UniProt P11712)
Sequence (P11712 whole entry): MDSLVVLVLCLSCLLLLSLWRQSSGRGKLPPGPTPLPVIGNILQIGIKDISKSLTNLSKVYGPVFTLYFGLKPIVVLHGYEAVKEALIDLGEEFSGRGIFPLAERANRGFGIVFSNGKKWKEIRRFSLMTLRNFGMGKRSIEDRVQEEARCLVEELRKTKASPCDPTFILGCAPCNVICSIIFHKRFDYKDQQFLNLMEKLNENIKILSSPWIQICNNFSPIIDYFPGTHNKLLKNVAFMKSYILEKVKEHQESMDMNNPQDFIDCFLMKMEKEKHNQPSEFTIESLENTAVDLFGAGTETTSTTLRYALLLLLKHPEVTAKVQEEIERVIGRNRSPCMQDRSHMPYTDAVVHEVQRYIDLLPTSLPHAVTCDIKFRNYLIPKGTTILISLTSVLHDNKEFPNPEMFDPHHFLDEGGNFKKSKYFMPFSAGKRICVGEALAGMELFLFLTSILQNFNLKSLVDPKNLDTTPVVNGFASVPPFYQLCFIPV
ASSAY_INFO: Inhibition of CYP2C9 in human liver microsomes at 3.3 uM
Assay type: ADME, Microsome
QUANTITY_MEASURED: inhibition at 3.3 µM (%)
// note: answer is a bare numeric in %

Please report the recorded inhibition at 3.3 µM for `FC(F)(F)c1ccccc1-c1ccc2[nH]c(/C=C/C3CCCCC3)nc2c1` .
62

###

MEASUREMENT_TARGET: Cytochrome P450 1A2 (Homo sapiens)
Sequence (P05177 whole entry): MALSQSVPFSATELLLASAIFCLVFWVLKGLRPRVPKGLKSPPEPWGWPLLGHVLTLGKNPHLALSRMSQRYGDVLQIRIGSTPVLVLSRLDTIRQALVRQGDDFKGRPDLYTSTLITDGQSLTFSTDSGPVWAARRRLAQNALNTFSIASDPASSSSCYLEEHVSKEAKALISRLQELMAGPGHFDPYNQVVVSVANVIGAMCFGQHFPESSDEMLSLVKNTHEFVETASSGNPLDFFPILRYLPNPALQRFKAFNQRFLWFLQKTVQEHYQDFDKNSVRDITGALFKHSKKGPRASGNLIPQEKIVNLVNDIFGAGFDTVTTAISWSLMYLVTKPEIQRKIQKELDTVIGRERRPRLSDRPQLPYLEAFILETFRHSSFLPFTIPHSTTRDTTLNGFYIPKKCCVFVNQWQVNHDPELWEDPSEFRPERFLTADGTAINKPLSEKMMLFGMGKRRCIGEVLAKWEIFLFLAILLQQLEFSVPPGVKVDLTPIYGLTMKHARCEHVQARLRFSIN
ASSAY_INFO: Inhibition of recombinant CYP1A2
QUANTITY_MEASURED: IC50

Please report the recorded IC50 for `FC(F)(F)c1ccccc1-c1ccc2[nH]c(/C=C/C3CCCCC3)nc2c1` .
> 10 µM
